- EXPERIMENTAL_SYSTEM: Estrogen receptor (Homo sapiens) (UniProt P03372)
- Sequence (P03372 whole entry, looked up, the tested form may be a part): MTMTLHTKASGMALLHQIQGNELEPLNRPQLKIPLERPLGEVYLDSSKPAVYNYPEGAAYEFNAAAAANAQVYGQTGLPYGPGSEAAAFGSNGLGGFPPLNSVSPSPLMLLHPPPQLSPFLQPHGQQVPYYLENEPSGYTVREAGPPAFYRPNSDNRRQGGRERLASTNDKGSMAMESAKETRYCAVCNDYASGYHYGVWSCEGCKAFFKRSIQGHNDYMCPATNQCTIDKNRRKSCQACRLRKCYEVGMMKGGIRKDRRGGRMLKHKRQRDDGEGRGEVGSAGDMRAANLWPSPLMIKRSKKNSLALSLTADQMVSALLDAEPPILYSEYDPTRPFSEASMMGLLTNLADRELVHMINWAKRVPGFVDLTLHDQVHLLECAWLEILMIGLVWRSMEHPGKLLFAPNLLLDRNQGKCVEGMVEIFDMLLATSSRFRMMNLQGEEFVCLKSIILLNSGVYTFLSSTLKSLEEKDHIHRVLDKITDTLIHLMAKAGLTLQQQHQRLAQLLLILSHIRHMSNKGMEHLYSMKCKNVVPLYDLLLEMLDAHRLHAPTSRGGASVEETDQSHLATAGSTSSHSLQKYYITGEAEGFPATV
- TEST_DETAILS: OT_ER_ERaERa_0480: Odyssey Thera (OT) 8-hour HEK293T Protein-Complementation Assay for Estrogen Receptor-alpha/-alpha Homodimer (AID 2283351);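 also: rise in fluorescence from reassembled reporter fragments on ERα LBD homodimer in nucleus or whole cell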
Inconclusive results are not listed. Activity calls are given as the source filed them. The calls were made as follows: active = hit-call score of the fitted dose curve at least 0.9, where 1 is the maximum; inconclusive = response in the unintended direction; inactive = score below 0.9.
Result category, one only: YES = active, NO = inactive

What did the test return for O=C(c1ccccc1)c1ccc(O)cc1O ?
YES

Another molecule to check: CCCCCCCCCCCCC[N+](C)(C)Cc1ccccc1
NO

Another molecule to check: CCC(Cc1c(I)cc(I)c(N)c1I)C(=O)O (stereo not drawn)
YES

Another molecule to check: CCCCCCCCn1sc(Cl)c(Cl)c1=O
NO

Another molecule to check: N#Cc1ccccc1O
NO

Another molecule to check: CCCCC(CC)COC(=O)c1ccc(N(C)C)cc1 (stereo not drawn)
NO

Another molecule to check: CCCCCCCC/C=C\CCCCCCCC(=O)OCC(O)CO (stereo not drawn)
NO

Another molecule to check: CC(C)Nc1ccc(NC(C)C)c2c1C(=O)c1ccccc1C2=O
NO

Another molecule to check: CC(=O)CCC(C)C
NO

Another molecule to check: CCCCOC(=O)C(C)O (stereo not drawn)
NO

Another molecule to check: F[Si-2](F)(F)(F)(F)F
NO

Another molecule to check: OCC1CCCO1 (stereo not drawn)
NO

Another molecule to check: Cc1ccc(O)c(-n2nc3ccccc3n2)c1
NO

###

- TEST_DETAILS: BSK_3C_TissueFactor: BioMAP Diversity Plus: 3C Assay for Tissue Factor Biomarker Activity (AID 2282997)
- CONDITION_SET: BioMAP 3C HUVEC, tissue factor biomarker readout; actives raise or lower the signal
Active and inactive are the calls of the source. Rule for the calls: active = hit-call score of the fitted dose curve at least 0.9, where 1 is the maximum; inactive = score below 0.9.
Result category, one only: active, inactive

What did the test return for Cc1ccc(S(=O)(=O)C(I)I)cc1 ?
active

Another molecule to check: NCC(F)(F)C(F)(F)C(F)(F)C(F)(F)C(F)(F)C(F)(F)C(F)(F)C(F)(F)F
inactive

Another molecule to check: OCC(F)(F)C(F)(F)C(F)(F)C(F)(F)C(F)(F)C(F)(F)C(F)(F)C(F)(F)CO
inactive

Another molecule to check: CC(C)(C)c1cc(CCC(=O)NCCCCCCNC(=O)CCc2cc(C(C)(C)C)c(O)c(C(C)(C)C)c2)cc(C(C)(C)C)c1O
inactive

Another molecule to check: NC(O)(C(F)(F)F)C(F)(F)F
inactive

Another molecule to check: FC(F)(F)C(F)(F)C(F)(F)C(F)(F)C(F)(F)C(F)(F)C(F)(F)CCI
inactive

Another molecule to check: CC(C)CCCC(C)CCO (centres undefined)
active

Another molecule to check: CC1=CC2C3C=CC(C3)C2C1C (centres undefined)
inactive

Another molecule to check: O=S(=O)(Cl)C(F)(F)C(F)(F)C(F)(F)C(F)(F)C(F)(F)C(F)(F)C(F)(F)C(F)(F)F
inactive

Another molecule to check: O=C(F)C1(F)C(F)(F)C(F)(F)C(F)(F)C(F)(F)C1(F)F
inactive

Another molecule to check: O=S(=O)(O)CCC(F)(F)C(F)(F)C(F)(F)C(F)(F)F
inactive

Another molecule to check: OCC(F)(F)C(F)(F)C(F)(F)C(F)(F)C(F)(F)C(F)(F)CO
inactive

Another molecule to check: FC(F)(F)C(F)(F)C(F)(F)C(F)(F)C(F)(F)C(F)(F)CC[Si](Cl)(Cl)Cl
inactive

Another molecule to check: C=C(C)C(=O)OCC(F)(F)C(F)(F)C(F)(F)C(F)F
inactive

Another molecule to check: NC(=O)C(F)(F)C(F)(F)C(F)(F)C(F)(F)C(F)(F)C(F)(F)C(F)(F)F
inactive

Another molecule to check: O=S(=O)(O)CCC(F)(F)C(F)(F)C(F)(F)C(F)(F)C(F)(F)C(F)(F)C(F)(F)C(F)(F)F
inactive

Another molecule to check: COC(F)(C(F)F)C(F)(F)F (centres undefined)
inactive

Another molecule to check: O=C1C=CC(=O)N1c1ccc(Cc2ccc(N3C(=O)C=CC3=O)cc2)cc1
active

Another molecule to check: Nc1cc([N+](=O)[O-])cc(Cl)c1O
inactive

Another molecule to check: Cc1cc(O)c(C(C)(C)C)cc1C(C)(C)C
active

Another molecule to check: CNS(=O)(=O)C(F)(F)C(F)(F)C(F)(F)C(F)(F)C(F)(F)C(F)(F)C(F)(F)C(F)(F)F
inactive

Another molecule to check: O=C(c1ccccc1)c1ccc(O)cc1O
inactive

Another molecule to check: C=CC(=O)OCC(F)(F)C(F)(F)C(F)(F)C(F)(F)C(F)(F)C(F)(F)C(F)(F)C(F)F
inactive

Another molecule to check: OCC(F)(F)C(F)(F)C(F)(F)CO
inactive

Another molecule to check: CN(C(=O)C(F)(F)C(F)(F)C(F)(F)F)[Si](C)(C)C
inactive

Another molecule to check: OCC(O)CC(F)(F)C(F)(F)C(F)(F)C(F)(F)C(F)(F)C(F)(F)C(F)(F)C(F)(F)F (centres undefined)
inactive

Another molecule to check: Brc1nc2ccccc2s1
inactive

Another molecule to check: O=C(O)C(F)(F)C(F)(F)C(F)(F)C(F)(F)C(F)(F)C(F)(F)C(F)F
inactive

Another molecule to check: Cc1cc(C)c(O)c(C(C)(C)C)c1
active

Another molecule to check: NC(=O)C(F)(F)C(F)(F)C(F)(F)F
inactive

Another molecule to check: O=C(O)CCC(F)(F)C(F)(F)C(F)(F)F
inactive

Another molecule to check: C[C@]12CC[C@H]3C(=CCc4cc(O)ccc43)[C@@H]1CCC2=O
inactive

Another molecule to check: O=C(Cl)C(F)(F)C(F)(F)C(F)(F)C(F)(F)C(F)(F)C(F)(F)F
inactive

Another molecule to check: O=C(O)CCC(F)(F)C(F)(F)C(F)(F)C(F)(F)C(F)(F)C(F)(F)C(F)(F)F
inactive

Another molecule to check: O=C=Nc1cccc2c(N=C=O)cccc12
inactive

Another molecule to check: CO[Si](C)(CCC(F)(F)C(F)(F)C(F)(F)C(F)(F)C(F)(F)C(F)(F)F)OC
inactive

Another molecule to check: O=C(Cl)C(F)(F)C(F)(F)C(F)(F)C(F)(F)C(F)(F)C(F)(F)C(F)(F)F
inactive

Another molecule to check: OCC(O)CC(F)(F)C(F)(F)C(F)(F)C(F)(F)F (centres undefined)
inactive

Another molecule to check: NCC(F)(F)C(F)(F)C(F)(F)C(F)(F)C(F)(F)C(F)(F)F
inactive

Another molecule to check: O=C1c2c(O)ccc(Nc3ccc(CCO)cc3)c2C(=O)c2c([N+](=O)[O-])ccc(O)c21
active

Another molecule to check: CCOC(=O)CC(=O)C(F)(F)C(F)(F)F
inactive

Another molecule to check: O=C(O)C(F)(F)C(F)(F)C(F)(F)OC(F)(C(F)(F)F)C(F)(F)F
inactive

Another molecule to check: NC(=O)C(F)(F)C(F)(F)C(F)(F)C(F)F
inactive

Another molecule to check: CCN(CC)c1ccc(C=O)c(O)c1
inactive

Values were extracted from PubChem BioAssay (EPA / NIEHS).
